Molecular target: human Top IB (hTopIB) (Homo sapiens, UniProt P11387)
Construct: made in house
Sequence (P11387 1-765): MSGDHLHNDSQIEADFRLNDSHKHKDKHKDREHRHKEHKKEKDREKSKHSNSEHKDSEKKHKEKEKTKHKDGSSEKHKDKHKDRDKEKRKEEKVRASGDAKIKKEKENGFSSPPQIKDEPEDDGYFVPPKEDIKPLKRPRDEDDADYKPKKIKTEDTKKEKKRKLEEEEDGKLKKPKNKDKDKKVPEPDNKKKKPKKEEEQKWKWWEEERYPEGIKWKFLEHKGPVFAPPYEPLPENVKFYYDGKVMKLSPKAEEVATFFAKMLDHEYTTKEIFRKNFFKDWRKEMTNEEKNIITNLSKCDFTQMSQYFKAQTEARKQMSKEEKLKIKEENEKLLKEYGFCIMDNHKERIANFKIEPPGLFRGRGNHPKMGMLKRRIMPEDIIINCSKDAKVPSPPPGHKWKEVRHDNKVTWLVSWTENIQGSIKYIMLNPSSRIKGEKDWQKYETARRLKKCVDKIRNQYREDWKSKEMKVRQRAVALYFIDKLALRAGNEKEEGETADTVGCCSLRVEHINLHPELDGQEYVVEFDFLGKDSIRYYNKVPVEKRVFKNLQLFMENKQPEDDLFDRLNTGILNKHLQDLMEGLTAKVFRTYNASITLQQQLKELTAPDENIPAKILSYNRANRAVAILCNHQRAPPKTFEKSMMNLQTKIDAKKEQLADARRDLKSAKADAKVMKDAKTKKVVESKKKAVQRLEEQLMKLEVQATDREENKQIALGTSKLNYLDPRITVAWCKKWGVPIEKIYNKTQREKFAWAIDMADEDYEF
Assay: Relaxation of supercoiled pSK DNA by recombinant hTopIB
Format: biochemical
Settings: Table 2
MEASUREMENT NAME: hTopIB inhibition

COc1cc2c3c(n(CCCn4ccnc4)c(=O)c2cc1OC)-c1cc2c(cc1C3=O)OCO2 [Compound 14]    +++ (inhibition at 1 μM)
COc1ccc2c(c1)C(=O)c1c-2n(CCCn2ccnc2)c(=O)c2cc([N+](=O)[O-])ccc12 [Compound 12]    +++ (inhibition at 1 μM)
O=C1c2ccccc2-c2c1c1ccc([N+](=O)[O-])cc1c(=O)n2CCCn1ccnc1 [Compound 11]    +++ (inhibition at 1 μM)

---

test system: Leishmania topoisomerase IB (LTopIB); assay: Relaxation of supercoiled pSK DNA by recombinant LTopIB; assay type: biochemical; set-up: key: +++: inhibition at 1 μM; ++: inhibition at 10 μM; +: inhibition at 100 μM; 0: no inhibition; details: Table 2
MEASUREMENT NAME: LTopIB inhibition

What does the data say about its LTopIB inhibition? Entry: COc1cc2c3c(n(CCCn4ccnc4)c(=O)c2cc1OC)-c1cc2c(cc1C3=O)OCO2 [Compound 14]
0

---

test: Cytotoxicity on uninfected mouse splenocytes (Alamar Blue); assay type: cell-based; conditions: BALB/c, freshly isolated uninfected mouse splenocytes, non-infected mouse splenocytes, read-out: CC50 (μM) Murine Splenocytes
I'd be grateful if you could share measured CC50 for these entries.
Numbers only, in µM.

NCCCCn1c2c(c3ccccc3c1=O)C(=O)c1ccccc1-2 [Compound 9]    2.11
NCCn1c2c(c3ccccc3c1=O)C(=O)c1ccccc1-2 [Compound 1]    1.1
O=C1c2ccccc2-c2c1c1ccc([N+](=O)[O-])cc1c(=O)n2CCCN1CCOCC1 [Compound 15]    18
NCCCCCn1c2c(c3ccccc3c1=O)C(=O)c1ccccc1-2 [Compound 10]    1.35

Look up CC50: COc1cnc2c(c1)C(=O)c1c-2n(CCCN2CCOCC2)c(=O)c2ccc(OC)cc12 [Compound 17]
7.84

---

test system: Leishmania topoisomerase IB (LTopIB); assay: Relaxation of supercoiled pSK DNA by recombinant LTopIB; assay type: biochemical; conditions: Table 1
MEASUREMENT NAME: LTopIB inhibition

Example molecules with recorded LTopIB inhibition:
COC(=O)c1ccc2c(c1)C(=O)c1c-2n(CCCN)c(=O)c2cc([N+](=O)[O-])ccc12 [Compound 4]    ++ (inhibition at 10 μM)
NCCn1c2c(c3ccccc3c1=O)C(=O)c1ccccc1-2 [Compound 1]    +++ (inhibition at 1 μM)
NCCCCCn1c2c(c3ccccc3c1=O)C(=O)c1ccccc1-2 [Compound 10]    +++ (inhibition at 1 μM)
NCCCn1c2c(c3ccc([N+](=O)[O-])cc3c1=O)C(=O)c1cc(F)ccc1-2 [Compound 7]    ++ (inhibition at 10 μM)

For each listed entry, give its LTopIB inhibition.
1. CCOc1ccc2c(c1)C(=O)c1c-2n(CCCN)c(=O)c2cc([N+](=O)[O-])ccc12 [Compound 5]
2. NCCCn1c2c(c3ccc([N+](=O)[O-])cc3c1=O)C(=O)c1cc3c(cc1-2)OCO3 [Compound 8]
3. NCCCn1c2c(c3ccccc3c1=O)C(=O)c1ccccc1-2 [Compound 2]
4. NCCCn1c2c(c3ccc([N+](=O)[O-])cc3c1=O)C(=O)c1cc(Br)ccc1-2 [Compound 6]
5. COc1ccc2c(c1)C(=O)c1c-2n(CCCN)c(=O)c2cc([N+](=O)[O-])ccc12 [Compound 3]
6. NCCCCn1c2c(c3ccccc3c1=O)C(=O)c1ccccc1-2 [Compound 9]

++ (inhibition at 10 μM)
+++ (inhibition at 1 μM)
+++ (inhibition at 1 μM)
+++ (inhibition at 1 μM)
++ (inhibition at 10 μM)
+++ (inhibition at 1 μM)

---

test: Cytotoxicity on uninfected mouse splenocytes (Alamar Blue); type: cell-based; conditions: BALB/c, freshly isolated uninfected mouse splenocytes, non-infected mouse splenocytes, read-out: CC50 (μM) Murine Splenocytes
I'd appreciate it if you could supply CC50 values for the items below.

State recorded CC50 for all listed compounds.
1. NCCCn1c2c(c3ccc([N+](=O)[O-])cc3c1=O)C(=O)c1cc3c(cc1-2)OCO3
2. COC(=O)c1ccc2c(c1)C(=O)c1c-2n(CCCN)c(=O)c2cc([N+](=O)[O-])ccc12
3. COc1ccc2c(c1)C(=O)c1c-2n(CCCN2CCOCC2)c(=O)c2cc([N+](=O)[O-])ccc12
4. O=C1c2ccccc2-c2c1c1ccc([N+](=O)[O-])cc1c(=O)n2CCCn1ccnc1
5. COc1cnc2c(c1)C(=O)c1c-2n(CCCN2CCOCC2)c(=O)c2cc(OC)c(OC)cc12
6. NCCCn1c2c(c3ccc([N+](=O)[O-])cc3c1=O)C(=O)c1cc(F)ccc1-2
7. COc1cc2c3c(n(CCCn4ccnc4)c(=O)c2cc1OC)-c1cc2c(cc1C3=O)OCO2
8. C[C@@H]1[C@H](O)[C@@H](C)/C=C/C=C/C=C/C=C/C=C/C=C/C=C/[C@H](O[C@@H]2O[C@H](C)[C@@H](O)[C@H](N)[C@@H]2O)C[C@@H]2O[C@](O)(C[C@@H](O)C[C@@H](O)[C@H](O)CC[C@@H](O)C[C@@H](O)CC(=O)O[C@H]1C)C[C@H](O)[C@H]2C(=O)O [AMB, amphotericin B, reference compound]

1: 0.05 µM; 2: 0.59 µM; 3: 0.59 µM; 4: 0.71 µM; 5: 3.81 µM; 6: 0.3 µM; 7: 0.03 µM; 8: > 20 µM

I would be grateful if you could provide CC50 for each of the following entries.
1. O=C1c2cccnc2-c2c1c1ccccc1c(=O)n2CCCn1ccnc1
2. CCOc1ccc2c(c1)C(=O)c1c-2n(CCCN)c(=O)c2cc([N+](=O)[O-])ccc12
3. COc1ccc2c(c1)C(=O)c1c-2n(CCCn2ccnc2)c(=O)c2cc([N+](=O)[O-])ccc12
4. NCCCn1c2c(c3ccccc3c1=O)C(=O)c1ccccc1-2
5. NCCCn1c2c(c3ccc([N+](=O)[O-])cc3c1=O)C(=O)c1cc(Br)ccc1-2
6. COc1ccc2c(c1)C(=O)c1c-2n(CCCN)c(=O)c2cc([N+](=O)[O-])ccc12

1. 2.4 µM
2. 0.35 µM
3. 0.33 µM
4. 0.59 µM
5. 0.81 µM
6. 0.41 µM

---

system: iRFP L. infantum amastigotes infecting mouse splenocytes; assay: Antileishmanial activity on iRFP L. infantum amastigotes in ex vivo murine splenic explants; assay type: cell-based, Leishmania infantum; conditions: Leishmania infantum, Splenocyte; splenic-infecting iRFP L. infantum amastigotes, 72 h, 37 °C; read-out: EC50 (μM) L. infantum amastigotes
MEASUREMENT NAME: EC50 (µM)
Numbers only, in µM.

// solved cases for EC50 follow
COc1cc2c3c(n(CCCn4ccnc4)c(=O)c2cc1OC)-c1cc2c(cc1C3=O)OCO2    0.01
NCCCn1c2c(c3ccc([N+](=O)[O-])cc3c1=O)C(=O)c1cc3c(cc1-2)OCO3    0.02
COc1ccc2c(c1)C(=O)c1c-2n(CCCn2ccnc2)c(=O)c2cc([N+](=O)[O-])ccc12    0.01
NCCCn1c2c(c3ccc([N+](=O)[O-])cc3c1=O)C(=O)c1cc(F)ccc1-2    0.04
NCCCCCn1c2c(c3ccccc3c1=O)C(=O)c1ccccc1-2    2.29

For every record below, what is its EC50?
1. NCCn1c2c(c3ccccc3c1=O)C(=O)c1ccccc1-2
2. CCOc1ccc2c(c1)C(=O)c1c-2n(CCCN)c(=O)c2cc([N+](=O)[O-])ccc12
3. COc1ccc2c(c1)C(=O)c1c-2n(CCCN2CCOCC2)c(=O)c2cc([N+](=O)[O-])ccc12

1: 0.04; 2: 0.08; 3: 1.86

Fill in EC50 for each of the 2 molecules listed.
1. C[C@@H]1[C@H](O)[C@@H](C)/C=C/C=C/C=C/C=C/C=C/C=C/C=C/[C@H](O[C@@H]2O[C@H](C)[C@@H](O)[C@H](N)[C@@H]2O)C[C@@H]2O[C@](O)(C[C@@H](O)C[C@@H](O)[C@H](O)CC[C@@H](O)C[C@@H](O)CC(=O)O[C@H]1C)C[C@H](O)[C@H]2C(=O)O [AMB, amphotericin B, reference compound]
2. O=C1c2ccccc2-c2c1c1ccc([N+](=O)[O-])cc1c(=O)n2CCCN1CCOCC1

1. 0.3
2. 0.6

meta.source: paper PMC6796659
